molecular target: soluble TPO-R (UniProt P40238 26-491); assay: equilibrium binding ELISA, MBP-TPO or lacI-peptide tracer
Sequence (P40238 26-491): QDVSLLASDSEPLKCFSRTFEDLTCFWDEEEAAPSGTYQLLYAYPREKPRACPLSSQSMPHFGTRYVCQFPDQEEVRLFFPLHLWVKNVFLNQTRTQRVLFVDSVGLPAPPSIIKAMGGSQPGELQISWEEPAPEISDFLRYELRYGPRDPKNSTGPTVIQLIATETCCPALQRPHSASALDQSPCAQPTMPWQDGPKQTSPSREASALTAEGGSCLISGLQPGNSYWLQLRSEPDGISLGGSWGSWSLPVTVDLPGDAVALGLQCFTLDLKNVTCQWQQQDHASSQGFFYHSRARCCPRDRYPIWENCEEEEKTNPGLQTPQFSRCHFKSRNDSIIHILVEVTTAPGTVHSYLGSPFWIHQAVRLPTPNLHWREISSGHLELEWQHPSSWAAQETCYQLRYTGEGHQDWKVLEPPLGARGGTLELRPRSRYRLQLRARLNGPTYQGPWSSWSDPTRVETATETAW
ENDPOINT LABEL: IC50

## Task Check the records and state IC50 for GGCTLREWLHGGFCGG (free synthetic peptide) [G G C T L R E W L H G G F C G G]
## Result ≤ 500 nM
